# protocol.notes: RP, Waters ACQUITY UPLC BEH C18, 100 × 2.1 mm, 1.7 µm, 0.3 mL/min, estimated dead time 0.73 min; A: water + 0.1% formic acid, pH 3; B: methanol + 0.1% formic acid, pH 3; gradient (min/%B) 0/10 14/90 16/90 18/10
# experimental.setup: stereoisomer not certain
Quick list: LC retention time per entry.
readout.name: LC retention time (min)

{"molecule": "CCOC(=O)c1cnn(C)c1S(=O)(=O)NC(=O)Nc1nc(OC)cc(OC)n1 [Pyrazosulfuron-ethyl]", "readout.name": "LC retention time", "observed": 7.91}
{"molecule": "CC(C)N1C(=O)c2ccccc2NS1(=O)=O [Bentazon]", "readout.name": "LC retention time", "observed": 3.68}
{"molecule": "O=[N+]([O-])c1cnc(CO)n1CCO [Hydroxymetronidazole (MNZOH)]", "readout.name": "LC retention time", "observed": 1.9}
{"molecule": "CC(C)(CO)NCC(O)c1cc(Cl)c(N)c(Cl)c1 (stereo not drawn) [Hydroxymethyl clenbuterol]", "readout.name": "LC retention time", "observed": 4.17}
{"molecule": "Nc1ccc(S(=O)(=O)c2ccc(N)cc2)cc1 [Dapsone]", "readout.name": "LC retention time", "observed": 3.17}
{"molecule": "CN(C)C(=O)Nc1ccc(-n2nc(C(C)(C)C)oc2=O)c(Cl)c1 [Dimefuron]", "readout.name": "LC retention time", "observed": 9.63}
{"molecule": "NC(C(=O)NC1C(=O)N2C(C(=O)O)=C(Cl)CSC12)c1ccccc1 (stereo not drawn) [Cefaclor]", "readout.name": "LC retention time", "observed": 4.02}
{"molecule": "COC(=O)c1ccccc1S(=O)(=O)NC(=O)Nc1nc(OC(F)F)cc(OC(F)F)n1 [Primisulfuron-methyl]", "readout.name": "LC retention time", "observed": 8.86}

The values you see were collected from the RepoRT retention time repository (doi:10.1016/j.scitotenv.2015.08.078).
